src = ChEMBL document CHEMBL1142221

# Target system: Neuronal acetylcholine receptor subunit alpha-7 (Rattus norvegicus, UniProt Q05941)
# Sequence (Q05941 whole entry): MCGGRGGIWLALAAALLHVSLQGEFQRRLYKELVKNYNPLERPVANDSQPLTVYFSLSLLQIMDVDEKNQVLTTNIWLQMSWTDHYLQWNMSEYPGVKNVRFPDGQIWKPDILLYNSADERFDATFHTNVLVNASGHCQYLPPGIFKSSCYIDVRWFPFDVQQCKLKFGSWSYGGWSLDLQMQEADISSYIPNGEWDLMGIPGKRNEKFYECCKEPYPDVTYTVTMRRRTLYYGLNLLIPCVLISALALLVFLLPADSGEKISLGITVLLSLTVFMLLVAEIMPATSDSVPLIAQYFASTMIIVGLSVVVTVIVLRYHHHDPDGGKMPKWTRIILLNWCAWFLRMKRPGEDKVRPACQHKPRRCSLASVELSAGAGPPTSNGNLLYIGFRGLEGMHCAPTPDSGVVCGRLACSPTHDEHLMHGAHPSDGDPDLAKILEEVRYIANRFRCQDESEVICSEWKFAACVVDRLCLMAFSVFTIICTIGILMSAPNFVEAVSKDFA
# Measurement description: Displacement of [125I]alpha-bungarotoxin from alpha-7 nAChR in rat hippocampus
# Format: tissue-based
pIC50: −log10 of the molar value.
Property measured: pIC50

>>> reported("Cc1cc(/C(=C/Nc2ccc(Cl)cc2)C(=O)Nc2ccc(Cl)cc2)on1")
7.92

====

# Measurement description: Cmax in NSA mouse at 0.3 mg/kg, po after 120 to 150 mins
# Type: ADME, organism-based
# Design: dose 0.3 mg/kg, route oral
# Condition summary: in vivo
Property measured: Cmax (nM)

>>> reported("Cc1cc(/C(=C/Nc2ccc(Cl)cc2)C(=O)Nc2ccc(Cl)cc2)on1")
150

====

# Target system: Neuronal acetylcholine receptor subunit alpha-7 (Rattus norvegicus)
# Measurement description: Displacement of [125I]alpha-bungarotoxin from alpha-7 nAChR in rat cortex
Property measured: Ki (nM)

>>> reported("Cc1cc(/C(=C/Nc2ccc(Cl)cc2)C(=O)Nc2ccc(Cl)cc2)on1 [AVL-3288]")
10

====

# Target system: Neuronal acetylcholine receptor subunit alpha-7 (Rattus norvegicus)
# Measurement description: Displacement of [125I]alpha-bungarotoxin from alpha-7 nAChR in rat cortex
pIC50: −log10 of the molar value.
Property measured: pIC50

>>> reported("Cc1cc(/C(=C/Nc2ccc(Cl)cc2)C(=O)Nc2ccc(Cl)cc2)on1 [AVL-3288]")
7.55

====

# Target system: GABA-A receptor; alpha-2/beta-3/gamma-2 (Homo sapiens) (UniProt P18507+P28472+P47869)
# Measurement description: Activation of human GABAA alpha-2-beta-3-gamma-2L receptor expressed in Xenopus oocytes assessed as modulation of GABA-induced current by measuring ratio of I/Imax current by two-electrode voltage-clamp method
# Condition summary: Oocyte
Property measured: Ratio

>>> reported("CCOc1ccc(N/C=C(\\C(=O)Nc2ccccc2)C(=O)c2ccccc2)cc1")
0.06
>>> reported("CCOC(=O)/C(=C\\Nc1ccc(OCC)cc1)C(=O)c1ccccc1Cl")
0.93
>>> reported("CCOC(=O)/C(=C\\Nc1ccc(OCC)cc1)C(=O)c1ccc(F)cc1")
1.17
>>> reported("CCOc1ccc(N/C=C(\\C(=O)Nc2ccccc2)c2cc(C)no2)cc1")
0.1
>>> reported("CCOc1ccc(N/C=C(\\C(=O)Nc2ccc(Cl)cc2)c2cc(C)no2)cc1")
0.12

====

# Target system: Neuronal acetylcholine receptor subunit alpha-7 (Rattus norvegicus)
# Measurement description: Displacement of [125I]alpha-bungarotoxin from alpha-7 nAChR in rat hippocampus
# Assay type: tissue-based
pKi: −log10 of the molar value.
Property measured: pKi

>>> reported("Cc1cc(/C(=C/Nc2ccc(Cl)cc2)C(=O)Nc2ccc(Cl)cc2)on1 [AVL-3288]")
8.35

====

# Target system: Neuronal acetylcholine receptor subunit alpha-7 (Rattus norvegicus)
# Measurement description: Displacement of [125I]alpha-bungarotoxin from alpha-7 nAChR in rat amygdala
# Type: tissue-based
pKi: −log10 of the molar value.
Property measured: pKi

>>> reported("Cc1cc(/C(=C/Nc2ccc(Cl)cc2)C(=O)Nc2ccc(Cl)cc2)on1 [AVL-3288]")
8.35

====

# Target system: GABA-A receptor; alpha-2/beta-3/gamma-2 (Homo sapiens, UniProt P18507+P28472+P47869)
# Sequence (P18507 whole entry): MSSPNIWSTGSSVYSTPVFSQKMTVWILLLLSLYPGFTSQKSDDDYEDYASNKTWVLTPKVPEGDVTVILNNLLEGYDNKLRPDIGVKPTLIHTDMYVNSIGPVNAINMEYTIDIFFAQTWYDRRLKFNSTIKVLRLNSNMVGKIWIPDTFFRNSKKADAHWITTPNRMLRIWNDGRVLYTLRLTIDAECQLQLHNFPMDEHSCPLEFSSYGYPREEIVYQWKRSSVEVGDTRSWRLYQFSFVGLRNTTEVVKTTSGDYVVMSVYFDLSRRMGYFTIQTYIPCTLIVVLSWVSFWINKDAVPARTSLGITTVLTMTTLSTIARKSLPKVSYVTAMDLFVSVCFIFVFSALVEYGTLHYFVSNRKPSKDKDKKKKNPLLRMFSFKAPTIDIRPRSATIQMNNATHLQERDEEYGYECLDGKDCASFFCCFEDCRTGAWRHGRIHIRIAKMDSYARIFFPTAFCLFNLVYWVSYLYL
# Sequence (P28472 whole entry): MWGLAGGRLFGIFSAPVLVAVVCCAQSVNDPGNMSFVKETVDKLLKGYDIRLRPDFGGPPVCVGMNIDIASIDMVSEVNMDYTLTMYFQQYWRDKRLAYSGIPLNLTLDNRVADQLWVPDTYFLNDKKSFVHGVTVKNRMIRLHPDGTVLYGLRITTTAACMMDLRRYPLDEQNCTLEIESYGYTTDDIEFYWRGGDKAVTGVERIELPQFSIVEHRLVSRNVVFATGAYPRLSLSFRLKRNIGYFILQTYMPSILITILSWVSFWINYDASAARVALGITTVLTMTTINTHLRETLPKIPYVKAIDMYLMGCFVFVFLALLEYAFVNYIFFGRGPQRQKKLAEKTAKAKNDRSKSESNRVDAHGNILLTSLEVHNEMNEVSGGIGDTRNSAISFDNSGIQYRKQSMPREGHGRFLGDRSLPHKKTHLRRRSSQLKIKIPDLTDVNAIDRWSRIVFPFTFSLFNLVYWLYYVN
# Sequence (P47869 whole entry): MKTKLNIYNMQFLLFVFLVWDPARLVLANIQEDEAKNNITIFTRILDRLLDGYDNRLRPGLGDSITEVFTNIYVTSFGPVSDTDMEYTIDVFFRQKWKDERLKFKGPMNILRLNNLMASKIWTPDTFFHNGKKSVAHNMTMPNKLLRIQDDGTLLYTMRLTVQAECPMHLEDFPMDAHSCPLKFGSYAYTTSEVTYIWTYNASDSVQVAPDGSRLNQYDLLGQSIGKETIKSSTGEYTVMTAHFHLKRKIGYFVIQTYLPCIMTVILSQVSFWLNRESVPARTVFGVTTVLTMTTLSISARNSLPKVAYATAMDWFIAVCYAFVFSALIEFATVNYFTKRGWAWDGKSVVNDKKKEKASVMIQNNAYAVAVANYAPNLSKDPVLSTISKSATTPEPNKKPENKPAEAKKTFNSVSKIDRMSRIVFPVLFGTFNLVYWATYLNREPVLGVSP
# Measurement description: Activation of human GABAA alpha-2-beta-3-gamma-2L receptor expressed in Xenopus oocytes assessed as modulation of GABA-induced current by two-electrode voltage-clamp method
Property measured: EC50 (nM)

>>> reported("CCOC(=O)/C(=C\\Nc1ccc(OCC)cc1)C(=O)c1ccccc1Cl")
200
